- Tgt: purified catalytic domain of recombinant human TACE (rhTACEc) (Homo sapiens, UniProt P78536, N452Q/S266A)
- Construct: 6xHis (C); made in house; host or cells: baculovirus/Hi5 insect cells
- Sequence (P78536 215-477 S266A/N452Q): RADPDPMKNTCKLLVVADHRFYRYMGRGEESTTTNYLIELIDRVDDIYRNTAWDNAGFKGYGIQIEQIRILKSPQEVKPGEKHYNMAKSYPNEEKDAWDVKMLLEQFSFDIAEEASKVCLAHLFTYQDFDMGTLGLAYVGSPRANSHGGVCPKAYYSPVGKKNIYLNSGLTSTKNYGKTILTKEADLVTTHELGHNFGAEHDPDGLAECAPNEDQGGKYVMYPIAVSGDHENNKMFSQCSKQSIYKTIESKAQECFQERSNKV
- Method Notes: TACE kinetic assay: cleavage of internally quenched peptide substrate TNF-FRET 2 (Ki)
- Format: biochemical
- Conditions Used: TNF-FRET 2 substrate, read-out: Ki
Entries whose Ki is below 0.5 nM take T; entries at or above 0.5 nM take F.

Answered examples (2):
> print(dat)
                                   compound  class
1  COc1ccc2c(c1F)C(=O)N(C[C@@]1(c3cc4nc(C(N)=O)ccc4o3)NC(=O)NC1=O)C2      F
2  COc1ccc2c(c1)C(=O)N(C[C@@]1(c3cc4c(C)ncc(C(=O)O)c4o3)NC(=O)NC1=O)C2      F

Request: Ki under 0.5 nM? Item: COc1ccc2c(c1F)C(=O)N(C[C@]1(C3=CC(c4ccccc4)N(C)O3)NC(=O)NC1=O)C2 (some centres unmarked)
Result: F

Request: Ki under 0.5 nM? Item: COc1ccc2c(c1F)C(=O)N(C[C@@]1(c3cc4cccnc4o3)NC(=O)NC1=O)C2
Result: T

Request: Ki under 0.5 nM? Item: COc1ccc2c(c1)C(=O)N(C[C@@]1(c3cc4c(-c5ccncc5)nccc4o3)NC(=O)NC1=O)C2
Result: F

Request: Ki under 0.5 nM? Item: COc1ccc2c(c1)C(=O)N(C[C@@]1(c3cc4cc(-c5cnccc5O)ccc4o3)NC(=O)NC1=O)C2
Result: F

Request: Ki under 0.5 nM? Item: COc1ccc2c(c1)C(=O)N(C[C@@]1(c3cc4nc(-c5ccc6nccn6c5)ccc4o3)NC(=O)NC1=O)C2
Result: F

The measurements presented in this section are drawn from patent US8569336B2.
